Molecular target: EZH1 (Homo sapiens)
Experiment: AlphaLISA enzyme activity inhibition, EZH1
Assay type: biochemical
Conditions: 10nM test substance
READOUT_NAME: inhibition at 0.01 µM (%)

Check out these entries, answers already filled in.
Data point: CCN1CCN(c2ncc(-c3cc(C(=O)NCc4c(SC)cc(C)[nH]c4=O)c(C)c4c3OC(C)(C3CCN(CC(F)(F)F)CC3)O4)cn2)CC1 (stereo not drawn) [Compound 75] ; inhibition at 0.01 µM = 86

Data point: CCN(C)c1ncc(-c2cc(C(=O)NCc3c(SC)cc(C)[nH]c3=O)c(C)c3c2OC(C)(C2CCN(CC(F)(F)F)CC2)O3)cn1 (stereo not drawn) [Compound 78] ; inhibition at 0.01 µM = 79.3

1: CCN(C)c1ccc(-c2cc(C(=O)NCc3c(SC)cc(C)[nH]c3=O)c(C)c3c2OC(C)(C2CCN(CC(F)F)CC2)O3)cn1 (single isomer, unassigned) [Compound 88]
2: CSc1cc(C)[nH]c(=O)c1CNC(=O)c1cc(-c2ccc(N3CCCCC3)nc2)c2c(c1C)OC(C)(C1CCN(CC(F)(F)F)CC1)O2 (stereo not drawn) [Compound 91]
3: CCN1CCC(C2(C)Oc3c(-c4ccc(N5C[C@@H](C)O[C@@H](C)C5)nc4)cc(C(=O)NCc4c(SC)cc(C)[nH]c4=O)c(C)c3O2)CC1 (single isomer, unassigned) [Compound 49]
4: CSc1cc(C)[nH]c(=O)c1CNC(=O)c1cc(-c2ccc3occc3c2)c2c(c1C)OC(C)(C1CCN(CC(F)(F)F)CC1)O2 (stereo not drawn) [Compound 96]
**Query** Number of compounds to sort: 4. Sort criterion: inhibition at 0.01 µM, ascending. To answer, write out the labels according to the requested order.
**Result** 4, 2, 1, 3
(4: 14.8%, 2: 41%, 1: 62%, 3: 92.4%)

###

Biological target: EZH1 (Homo sapiens)
Assay: AlphaLISA enzyme activity inhibition, EZH1
Type: biochemical
Settings: 5nM test substance
READOUT_NAME: inhibition at 0.005 µM (%)

Data point: CSc1cc(C)[nH]c(=O)c1CNC(=O)c1cc(-c2ccc(N3C[C@@H](C)O[C@@H](C)C3)nc2)c2c(c1C)OC(C)(C1CCN(C(C)C)CC1)O2 (single isomer, unassigned) ; inhibition at 0.005 µM = 80.2

Data point: COc1ccc(F)cc1-c1cc(C(=O)NCc2c(SC)cc(C)[nH]c2=O)c(C)c2c1OC(C)([C@H]1CC[C@H](N(C)C)CC1)O2 (relative stereo) ; inhibition at 0.005 µM = 80.5

Data point: CSc1cc(C)[nH]c(=O)c1CNC(=O)c1cc(-c2ccc(CN3CCOCC3)cc2)c2c(c1C)OC(C)([C@H]1CC[C@H](N(C)C)CC1)O2 (relative stereo) ; inhibition at 0.005 µM = 86.7

###

Biological target: EZH1 (Homo sapiens)
Experiment: AlphaLISA enzyme activity inhibition, EZH1
Type: biochemical
Conditions: 10nM test substance
READOUT_NAME: inhibition at 0.01 µM (%)

Data point: CSc1cc(C)[nH]c(=O)c1CNC(=O)c1cc(-c2cnc(N3CCOCC3)nc2)c2c(c1C)OC(C)(C1CCN(CC(F)(F)F)CC1)O2 (single isomer, unassigned) [Compound 69] ; inhibition at 0.01 µM = 87.9

I: CSc1cc(C)[nH]c(=O)c1CNC(=O)c1cc(-c2ccc(N3C[C@@H](C)O[C@@H](C)C3)nc2)c2c(c1C)OC(C)(C1CCN(CCc3ccccc3)CC1)O2 (single isomer, unassigned)
II: CSc1cc(C)[nH]c(=O)c1CNC(=O)c1cc(-c2ccc(N3CCOCC3)nc2)c2c(c1C)OC(C)(C1CCN(CC(F)(F)F)CC1)O2 (single isomer, unassigned) [Compound 62]
**Query** Which one would you say has the larger inhibition at 0.01 µM value: I , or II ? State your choice using its label.
**Result** II

###

Target: EZH1 (Homo sapiens, UniProt Q92800)
Sequence (Q92800 whole entry, species assumed): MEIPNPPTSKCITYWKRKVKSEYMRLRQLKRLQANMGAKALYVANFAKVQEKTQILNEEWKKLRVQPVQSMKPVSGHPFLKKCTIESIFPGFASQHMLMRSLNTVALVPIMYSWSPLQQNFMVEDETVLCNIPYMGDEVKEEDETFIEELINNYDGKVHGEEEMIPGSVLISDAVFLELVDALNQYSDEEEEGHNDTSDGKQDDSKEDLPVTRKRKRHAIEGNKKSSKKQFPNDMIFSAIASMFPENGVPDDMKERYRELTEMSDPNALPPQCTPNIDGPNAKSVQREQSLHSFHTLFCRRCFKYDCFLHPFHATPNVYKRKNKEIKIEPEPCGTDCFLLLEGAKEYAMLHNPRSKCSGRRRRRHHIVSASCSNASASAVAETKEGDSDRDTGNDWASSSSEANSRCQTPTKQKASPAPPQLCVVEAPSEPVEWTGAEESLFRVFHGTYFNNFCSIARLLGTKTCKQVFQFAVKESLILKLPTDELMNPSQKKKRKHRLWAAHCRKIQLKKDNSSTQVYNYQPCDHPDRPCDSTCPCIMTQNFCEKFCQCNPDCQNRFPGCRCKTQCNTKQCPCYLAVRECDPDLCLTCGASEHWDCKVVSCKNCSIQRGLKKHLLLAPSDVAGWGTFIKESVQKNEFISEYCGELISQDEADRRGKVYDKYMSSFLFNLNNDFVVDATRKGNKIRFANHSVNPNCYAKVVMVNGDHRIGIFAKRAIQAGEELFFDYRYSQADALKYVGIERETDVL
Sequence (O75530 whole entry partner, species assumed): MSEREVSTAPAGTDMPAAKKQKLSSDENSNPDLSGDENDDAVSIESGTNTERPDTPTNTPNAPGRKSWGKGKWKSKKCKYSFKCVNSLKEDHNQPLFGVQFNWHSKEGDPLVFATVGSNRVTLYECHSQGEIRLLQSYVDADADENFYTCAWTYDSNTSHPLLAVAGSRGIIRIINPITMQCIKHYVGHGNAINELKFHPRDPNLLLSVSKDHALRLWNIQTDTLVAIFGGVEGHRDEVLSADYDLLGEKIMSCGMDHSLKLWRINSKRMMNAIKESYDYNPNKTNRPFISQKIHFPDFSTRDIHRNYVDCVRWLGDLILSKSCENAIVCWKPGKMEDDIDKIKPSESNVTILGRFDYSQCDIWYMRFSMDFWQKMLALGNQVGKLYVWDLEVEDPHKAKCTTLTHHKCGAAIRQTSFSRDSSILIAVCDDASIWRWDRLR
Sequence (Q15022 whole entry partner, species assumed): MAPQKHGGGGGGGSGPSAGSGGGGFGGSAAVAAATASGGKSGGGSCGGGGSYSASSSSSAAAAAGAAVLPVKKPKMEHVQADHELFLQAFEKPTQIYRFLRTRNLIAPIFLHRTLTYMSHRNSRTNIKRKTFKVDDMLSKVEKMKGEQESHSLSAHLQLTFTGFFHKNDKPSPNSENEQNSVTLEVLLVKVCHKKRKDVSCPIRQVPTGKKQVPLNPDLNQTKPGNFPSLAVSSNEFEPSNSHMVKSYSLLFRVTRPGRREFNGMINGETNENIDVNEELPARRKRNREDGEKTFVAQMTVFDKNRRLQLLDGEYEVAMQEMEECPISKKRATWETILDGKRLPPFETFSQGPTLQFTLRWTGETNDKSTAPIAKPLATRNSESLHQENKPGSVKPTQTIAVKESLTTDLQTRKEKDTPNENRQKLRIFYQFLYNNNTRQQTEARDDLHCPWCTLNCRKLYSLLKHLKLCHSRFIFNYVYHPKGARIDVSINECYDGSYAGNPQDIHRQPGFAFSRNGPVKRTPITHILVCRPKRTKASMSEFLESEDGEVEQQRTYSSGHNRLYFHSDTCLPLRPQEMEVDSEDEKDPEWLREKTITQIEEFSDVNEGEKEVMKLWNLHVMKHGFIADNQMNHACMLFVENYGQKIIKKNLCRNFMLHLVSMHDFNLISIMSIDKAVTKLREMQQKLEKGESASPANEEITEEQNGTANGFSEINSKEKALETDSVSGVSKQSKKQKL
Test: AlphaLISA enzyme activity inhibition, EZH1
Assay type: biochemical
Conditions: 5nM test substance
READOUT_NAME: inhibition at 0.005 µM (%)

Data point: CSc1cc(C)[nH]c(=O)c1CNC(=O)c1cc(-c2cnc(N3CCOCC3)nc2)c2c(c1C)OC(C)(C1CCN(CC(F)F)CC1)O2 (single isomer, unassigned) ; inhibition at 0.005 µM = 68.5

1: CSc1cc(C)[nH]c(=O)c1CNC(=O)c1cc(-c2ccc(N3C[C@@H](C)O[C@@H](C)C3)nc2)c2c(c1C)OC(C)([C@H]1CC[C@H](N(C)C)CC1)O2 (stereo partly drawn)
2: COc1ccc(-c2cc(C(=O)NCc3c(SC)cc(C)[nH]c3=O)c(C)c3c2OC(C)(C2CCN(CC(F)(F)F)CC2)O3)cn1 (stereo not drawn)
**Query** From the items above, decide which of 1 and 2 has the lower inhibition at 0.005 µM reading. State your choice using its label.
**Result** 2

###

System: SW-13 cells
Assay: Cancer cell proliferation inhibition (Cell Counting Kit-8), adrenal cancer cell line
Assay type: cell-based
Conditions: Homo sapiens, SW13, 264 h, 1000 nM, cultured seven to 11 days; read-out: % inhibition rate SW-13
READOUT_NAME: inhibition at 1 µM

Check out these entries, answers already filled in.
Data point: CSc1cc(C)[nH]c(=O)c1CNC(=O)c1cc(-c2ccc(CN3CCOCC3)cc2)c2c(c1C)OC(C)([C@H]1CC[C@H](N(C)C)CC1)O2 (relative stereo) ; inhibition at 1 µM = 30 to 70%

Data point: COCCN(C)[C@H]1CC[C@H](C2(C)Oc3c(-c4ccc(N5CCC(F)(F)CC5)nc4)cc(C(=O)NCc4c(SC)cc(C)[nH]c4=O)c(C)c3O2)CC1 (relative stereo) ; inhibition at 1 µM = 30 to 70%

Could you now look at the following compound, please?
Data point: CSc1cc(C)[nH]c(=O)c1CNC(=O)c1cc(-c2ccc(Cl)s2)c2c(c1C)OC(C)([C@H]1CC[C@H](N(C)C)CC1)O2 (relative stereo) ; inhibition at 1 µM = 30 to 70%

###

Reported inhibition at 1 µM values follow for various compounds
Tested on: Lovo cells
Assay: Cancer cell proliferation inhibition (Cell Counting Kit-8), colorectal cancer cell line
Format: cell-based
Details: Homo sapiens, LoVo, 264 h, 1000 nM, cultured seven to 11 days; read-out: % inhibition rate LoVo

Data point: CSc1cc(C)[nH]c(=O)c1CNC(=O)c1cc(-c2ccc3occc3c2)c2c(c1C)OC(C)(C1CCN(CC(F)(F)F)CC1)O2 (stereo not drawn) [Compound 96] ; inhibition at 1 µM = ≥ 70%

New cases:
Data point: CSc1cc(C)[nH]c(=O)c1CNC(=O)c1cc(-c2ccc3c(c2)OCO3)c2c(c1C)OC(C)(C1CCN(CC(F)(F)F)CC1)O2 (stereo not drawn) [Compound 94] ; inhibition at 1 µM = ≥ 70%

Data point: CSc1cc(C)[nH]c(=O)c1CNC(=O)c1cc(-c2ccc(N3CCC(F)(F)CC3)nc2)c2c(c1C)OC(C)([C@H]1CC[C@H](N(C)C)CC1)O2 (relative stereo) [Compound 3] ; inhibition at 1 µM = 30 to 70%

Data point: CSc1cc(C)[nH]c(=O)c1CNC(=O)c1cc(-c2ccc3c(ccn3C)c2)c2c(c1C)OC(C)([C@H]1CC[C@H](N(C)C)CC1)O2 (relative stereo) [Compound 7] ; inhibition at 1 µM = 30 to 70%

Data point: CSc1cc(C)[nH]c(=O)c1CNC(=O)c1cc(-c2ccc(N3CCOCC3)cc2)c2c(c1C)OC(C)([C@H]1CC[C@H](N(C)C)CC1)O2 (relative stereo) [Compound 9] ; inhibition at 1 µM = 30 to 70%

Data point: CSc1cc(C)[nH]c(=O)c1CNC(=O)c1cc(-c2ccc(N3C[C@@H](C)O[C@@H](C)C3)nc2)c2c(c1C)OC(C)(C1CCN(C[C@H](C)O)CC1)O2 (stereo partly drawn) [Compound 40] ; inhibition at 1 µM = 30 to 70%

###

Target: EZH1 (Homo sapiens)
Experiment: AlphaLISA enzyme activity inhibition, EZH1
Assay type: biochemical
Conditions: 5nM test substance
READOUT_NAME: inhibition at 0.005 µM (%)

Data point: CCN1CCC(C2(C)Oc3c(-c4cnc(N5CCOCC5)nc4)cc(C(=O)NCc4c(SC)cc(C)[nH]c4=O)c(C)c3O2)CC1 (single isomer, unassigned) [Compound 73] ; inhibition at 0.005 µM = 75.7

Data point: CSc1cc(C)[nH]c(=O)c1CNC(=O)c1cc(-c2ccsc2)c2c(c1C)OC(C)(C1CCC(N(C)C)CC1)O2 (centres unmarked) [Compound 42] ; inhibition at 0.005 µM = 59.6

Data point: CSc1cc(C)[nH]c(=O)c1CNC(=O)c1cc(-c2ccc(N3CCC(F)(F)CC3)nc2)c2c(c1C)OC(C)([C@H]1CC[C@H](N(C)C)CC1)O2 (relative stereo) [Compound 3] ; inhibition at 0.005 µM = 73.5

Data point: CSc1cc(C)[nH]c(=O)c1CNC(=O)c1cc(-c2ccc3c(ccn3C)c2)c2c(c1C)OC(C)([C@H]1CC[C@H](N(C)C)CC1)O2 (relative stereo) [Compound 7] ; inhibition at 0.005 µM = 81.4

Data point: COC(CN1CCC(C2(C)Oc3c(-c4ccc(N5C[C@@H](C)O[C@@H](C)C5)nc4)cc(C(=O)NCc4c(SC)cc(C)[nH]c4=O)c(C)c3O2)CC1)OC (some centres unmarked) [Compound 41] ; inhibition at 0.005 µM = 69.1

src = patent EP4740948A1
